- Tested on: HT-29 (colon cancer) cells
- assay-method-text: MTT assay, HT-29 (colon cancer) cells
- Type: cell-based
- experimental-context: Homo sapiens, HT-29 cells, 72 h incubation
measure: IC50 (µM)

CCCCCCCC/C(=C\B1OC(C)(C)C(C)(C)O1)C(O)(c1ccccc1)C1CC1 (stereo not shown) [Compound E7] | 15

I. CCCCCCC(C)(O)/C(=C/B1OC(C)(C)C(C)(C)O1)CCC (stereo not shown) [Compound E5]
II. CCC/C(=C\B1OC(C)(C)C(C)(C)O1)C1(O)CCCc2ccccc21 (stereo not shown) [Compound E3]
Ask | Two entries are listed, I and II . Which one carries the higher IC50? Write the label of whichever entry you select.
Reply | II
(II: 85 µM, I: 55 µM)
